measurement protocol: folding stability dG unfold from chymotrypsin proteolysis; higher = more stable

primary sequence	value unit	folding stability dG unfold
SAGMEITTVTLPDGTKLITITLPVPGGPSITADVPYDPATGKVTLLKITGEDPALEALAKEAVEKLKKESAG [r5_266_JUSTAS]	kcal/mol	1.17
SAGSVTRSFPSGSSVSAETDPETNTITISTSPSSGQLVAQLPTAGEKVVPVSDRDLEEAAKEAAEALLSSAG [r5_447_JUSTAS]	kcal/mol	-0.134
SPAPPMRIDNIKPEKEDPNGDERKYRVYWQGPNGRPYHYEGPLEELEDMLDEDNIDPDNFWPGDEITIKVSA [r9_1078_TrROS]	kcal/mol	0.869
SAGGSAGGSAGGMWYIRITYDNGREIWIPIGDPITIKHKDGKPVQIKEVEVYPLPPGQISAGGSAGGSAGGS [r10_20_TrROS]	kcal/mol	2.72
